Recorded values, source ChEMBL document CHEMBL1151623.

Molecular target: UniProt P15121
Test: Inhibition of aldose reductase at 0.1 uM
MEASURED_ENDPOINT: inhibition (%)

Please review the following examples before continuing.
[
  {
    "STRUCTURE_NOTATION": "COc1ccc(-c2oc3cc(O[C@@H]4O[C@H](CO)[C@@H](O)[C@H](O)[C@H]4O)c(OC)c(O)c3c(=O)c2OC)cc1O",
    "inhibition, %": 47
  },
  {
    "STRUCTURE_NOTATION": "COc1cc2oc(-c3ccc(O)c(O)c3)c(OC)c(=O)c2c(O)c1OC",
    "inhibition, %": 88
  },
  {
    "STRUCTURE_NOTATION": "COc1c(-c2ccc(O)c(O)c2)oc2cc(O)cc(O)c2c1=O",
    "inhibition, %": 95
  },
  {
    "STRUCTURE_NOTATION": "O=C1NC(=O)c2cccc3cccc1c23",
    "inhibition, %": 92
  },
  {
    "STRUCTURE_NOTATION": "C[C@@H]1O[C@@H](Oc2c(-c3ccc(O)c(O)c3)oc3cc(O)cc(O)c3c2=O)[C@H](O)[C@H](O)[C@H]1O",
    "inhibition, %": 91
  }
]

[a] COc1cc2oc(-c3ccc(O)c(O)c3)c(OC)c(=O)c2c(O)c1O
[b] COc1cc2oc(-c3ccc(O)cc3)c(OC)c(=O)c2c(O)c1OC
Between these two entries, a and b , state which has the higher inhibition. State your choice using its label.
a
